# Inhibition of the PDE4 activity, -log IC50 listing for each entry below
Tested on: PDE4
test-details: Inhibition of PDE4 activity (method of Bauer and Schwabe, adapted to microtiter plates)
Assay type: biochemical
settings: inhibitory concentration as -log IC50 (mol/l)
Write it as a number; the unit mol/l goes unstated.

Some compounds with recorded Inhibition of the PDE4 activity, -log IC50:
COc1ccc(C2(C#N)CCC(C(N)=O)CC2)c2nc(C(C)C)oc12 (stereo not shown) = 7.65
COc1ccc(C2(C#N)CCOCC2)c2nc(C)oc12 = 6.87
COc1ccc(C2(C#N)CCC(=O)CC2)c2nc(C(C)C)oc12 = 6.96
COC(=O)C1CCC(C#N)(c2ccc(OC)c3oc(C(C)C)nc23)CC1 (stereo not shown) = 6.46
COc1ccc(C2(C#N)CCC(C(=O)O)CC2)c2nc(C(C)C)oc12 (stereo not shown) = 7.69

stdin: Retrieve Inhibition of the PDE4 activity, -log IC50 measured for COc1ccc(C2(C#N)CCOCC2)c2nc(C(C)C)oc12 and print it.
stdout: 7.86

stdin: Output measured Inhibition of the PDE4 activity, -log IC50 for this item: COc1ccc(C2(C#N)CCC(O)CC2)c2nc(C(C)C)oc12 (stereo not shown)
stdout: 7.77
